Several publications report IC50 on Lysine-specific histone demethylase 1A (Homo sapiens); those values are gathered here.

Task item: Give measured IC50 for c1ccc(C2C[C@@H]2NCC2(c3ccccc3)CCCC2)cc1 (stereo partly drawn) (Lysine-specific histone demethylase 1A (Homo sapiens)).
Reply: ≤ 50 nM

Task item: // fetch IC50 for CCc1ccc(-c2c(-c3ccc(C#N)c(F)c3)nc(NC[C@H]3CCNC3)c(=O)n2C)cc1 ; system: Lysine-specific histone demethylase 1A (Homo sapiens)
Reply: < 100 nM

Task item: Provide IC50, tested on Lysine-specific histone demethylase 1A (Homo sapiens), for COc1ccc(-n2nc(NC(=O)[C@H]3CC[C@H](N)CC3)cc2-c2ccc(C#N)c(F)c2)cc1 .
Reply: 1000 to 10000 nM

Task item: Param request: IC50 | system Lysine-specific histone demethylase 1A (Homo sapiens) | item O=C(O)[C@@H]1CC[C@H](c2nc(C3(CN[C@H]4CC4c4ccccc4)CC3)no2)C1 (stereo partly drawn)
Reply: 100 to 500 nM

Task item: State IC50 (Lysine-specific histone demethylase 1A (Homo sapiens)) of COc1ccc(-n2nc(NC[C@H]3CCC[C@@H](N)C3)cc2-c2ccc(C#N)c(F)c2)cc1 (racemic) .
Reply: < 500 nM

Task item: // output IC50; input COC1CN(c2ccc(-n3c(-c4ccc(C#N)c(F)c4)nc4c(N5CCC[C@@H](N)C5)ccnc43)c(F)c2)C1 ; system Lysine-specific histone demethylase 1A (Homo sapiens)
Reply: 30 nM

Task item: Tell me IC50 of COc1ccc(-n2cc(C(=O)N3CCCC(N)C3)c(-c3ccc(C#N)cc3)n2)cc1 (stereo not drawn) when tested on Lysine-specific histone demethylase 1A (Homo sapiens).
Reply: > 10000 nM

Task item: Write down measured IC50 (Lysine-specific histone demethylase 1A (Homo sapiens)) for this molecule. Cn1c(N2CCC(N)CC2)nc(-c2ccc(C#N)cc2)c(-c2ccc(C(N)=O)c(F)c2)c1=O
Reply: < 100 nM

Task item: Supply IC50 measured with Lysine-specific histone demethylase 1A (Homo sapiens) for O=c1[nH]cc(CCCN[C@@H]2C[C@H]2c2ccc(F)cc2)nc1N1CCOCC1 .
Reply: 7 nM
